B1: Intersectin-1, residues 909 to 971; numbered along this chain, Q15811 (parent)
chain: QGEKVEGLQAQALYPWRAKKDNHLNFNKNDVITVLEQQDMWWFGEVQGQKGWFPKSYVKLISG

Variants of: B1
Test: abundance fitness (aPCA) (normalised: wild type 0, dead -1); higher = more abundant; growth selection in yeast, the domain comes from the species named
Settings: Homo sapiens
Below, each entry is listed alongside its reported abundance fitness.
READOUT LABEL: abundance fitness

* QGEKVEGLQAQALYPWRAKKDNHLNQNKNDVITVLEQQDMWWFGEVQGQKGWFPKSYVKLISG [F26Q] | -1
* QGEKVEGLQAQALYPWRAKKDNHLNFNKNDVITVLEQQDMWWFCEVQGQKGWFPKSYVKLISG [G44C] | -0.79
* QGEKVEGLQAQALYPWRAKKDNHLNFNKNDVITVLRQQDMWWFGEVQGQKGWFPKSYVKLISG [E36R] | -0.147
* QGEKVEGLQAQALYPWRAKKDNHLNFNKNDVIYVLEQQDMWWFGEVQGQKGWFPKSYVKLISG [T33Y] | -0.016
* EGEKVEGLQAQALYPWRAKKDNHLNFNKNDVITVLEQQDMWWFGEVQGQKGWFPKSYVKLISG [Q1E] | -0.335
* QGEKVEGLQAQALYPWRAKKDNHLNFNKNDVITVLEQQDMWWFGEVQGQKGWFPKSYVKLISQ [G63Q] | -0.248
